Test system: MDA-MB-231 (breast cancer)
Experimental protocol: Cytotoxicity test by MTT assay, MDA-MB-231
Format: cell-based, human
Test settings: Homo sapiens, MBA-MB-231, 48 h
molecules and their reported pIC50
API: returns pIC50 as number; meaning -log10 of concentration in mol/L.

Ask: Hello, please tell me recorded pIC50 for this one: Cc1nc2c(c(C)c1O)/C(=C/c1cccnc1)C(=O)N2 [Compound I-22]
Result: 5.02

Ask: Hello, please tell me recorded pIC50 for this one: COc1ccc(OC)c(/C=C2\C(=O)Nc3nc(C)c(O)c(C)c32)c1 [Compound I-15]
Result: 4.64

Ask: Hello, please tell me recorded pIC50 for this one: Cc1nc2c(c(C)c1O)/C(=C/c1[nH]c(C)c(C(=O)NC3CCCCC3)c1C)C(=O)N2 [Compound I-41]
Result: 5.45

Ask: Hello, please tell me recorded pIC50 for this one: Cc1nc2c(c(C)c1O)/C(=C/c1[nH]c(C)c(C(=O)O)c1C)C(=O)N2 [Compound I-37]
Result: 4.71

Ask: Hello, please tell me recorded pIC50 for this one: Cc1nc2c(c(C)c1O)/C(=C/c1[nH]c(C)c(C(=O)N3CCCCC3)c1C)C(=O)N2 [Compound I-43]
Result: 4.83

Ask: Hello, please tell me recorded pIC50 for this one: CCNCCNC(=O)c1c(C)[nH]c(/C=C2\C(=O)Nc3nc(C)c(O)c(C)c32)c1C [Compound I-40]
Result: 5.83

Ask: Hello, please tell me recorded pIC50 for this one: COc1ccc(Br)cc1/C=C1\C(=O)Nc2nc(C)c(O)c(C)c21 [Compound I-17]
Result: 4.98

###

Experimental protocol: Cytotoxicity test by MTT assay, HEK293 normal cell line
Type: cell-based
Test settings: human, HEK293 cells (normal cell line)
molecules and their reported IC50 at 48 h
Express it in µM; write the number only.

Example entries begin here.
molecule="CCN(CC)CCNC(=O)c1c(C)[nH]c(/C=C2\\C(=O)Nc3ccc(F)cc32)c1C [Sunitinib, sunitinib, reference compound]" measurement_kind="IC50 at 48 h" unit_abbrev=µM value_observed=7.3
molecule=Cc1nc2c(c(C)c1O)/C(=C/c1ccoc1)C(=O)N2 measurement_kind="IC50 at 48 h" unit_abbrev=µM value_observed=19.9
molecule=Cc1nc2c(c(C)c1O)/C(=C/c1ccncc1)C(=O)N2 measurement_kind="IC50 at 48 h" unit_abbrev=µM value_observed=45.7

Ask: Hello, please tell me recorded IC50 at 48 h for this one: Cc1nc2c(c(C)c1O)/C(=C/c1[nH]c(C)c(C(=O)O)c1C)C(=O)N2
Result: 38

###

Tested on: MDA-MB-231 (breast cancer)
Experimental protocol: Cytotoxicity test by MTT assay, MDA-MB-231
Format: cell-based, human
Test settings: Homo sapiens, MBA-MB-231, 48 h
Measurement kind: pIC50
API: returns pIC50 as number; meaning -log10 of concentration in mol/L.

molecule=Cc1nc2c(c(C)c1O)/C(=C/c1ccc3ccccc3n1)C(=O)N2 tgt="MDA-MB-231 (breast cancer)" measurement_kind=pIC50 value_observed=5.55

Ask: Hello, please tell me recorded pIC50 for this one: Cc1nc2c(c(C)c1O)/C(=C/c1[nH]c(C)c(C(=O)NCCN3CCCCC3)c1C)C(=O)N2
Result: 5.09

Ask: Hello, please tell me recorded pIC50 for this one: Cc1nc2c(c(C)c1O)/C(=C/c1[nH]c(C)c(C(=O)N3CCN(C)CC3)c1C)C(=O)N2
Result: 4.79

Ask: Hello, please tell me recorded pIC50 for this one: CCN(CC)CCNC(=O)c1c(C)[nH]c(/C=C2\C(=O)Nc3ccc(F)cc32)c1C [Sunitinib, sunitinib, reference compound]
Result: 5.22
